Where these numbers come from: paper PMC10812921

Each record here notes measured binding signal.
Biological target: POU2 (OCT2 POU domain);BOB1 (OBF1, OCA-B) (human;human, UniProt P09086;Q16633 175-386;1-256, |)
Sequence 1: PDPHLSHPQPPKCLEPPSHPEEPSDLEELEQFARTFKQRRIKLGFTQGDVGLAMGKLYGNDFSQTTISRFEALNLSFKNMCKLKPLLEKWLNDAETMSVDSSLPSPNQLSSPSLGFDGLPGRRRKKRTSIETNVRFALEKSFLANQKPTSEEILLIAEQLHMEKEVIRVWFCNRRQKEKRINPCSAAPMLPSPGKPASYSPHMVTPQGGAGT
Sequence 2: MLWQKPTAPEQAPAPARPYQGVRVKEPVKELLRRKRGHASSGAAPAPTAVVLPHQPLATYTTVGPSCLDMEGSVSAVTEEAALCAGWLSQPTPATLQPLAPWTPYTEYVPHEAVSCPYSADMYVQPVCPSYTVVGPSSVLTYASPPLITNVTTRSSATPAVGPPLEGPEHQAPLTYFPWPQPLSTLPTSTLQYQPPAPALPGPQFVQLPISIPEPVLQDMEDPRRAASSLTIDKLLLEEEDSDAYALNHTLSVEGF
Assay: EMSA-SELEX-seq; with BOB1 (ternary complex band); 20 mM Tris-HCl pH 7.6, 140 mM NaCl, 10% glycerol, 0.5 mM EDTA, 0.05% Triton X-100, 0.1 mg/mL BSA, 0.1 mg/mL poly(dI-dC), 5 mM DTT, room temperature, 20 min; high values mean tight binding
Settings: protein: recombinant;recombinant; copies: 1;1; dsDNA, one strand shown
Metric Name: binding signal

{"Sequence Input": "ACAAGAAA", "Obs Value": "0.0322 % of ANNNNAAN 8-mers"}
{"Sequence Input": "AGTAGAAG", "Obs Value": "0.0297 % of ANNNNAAN 8-mers"}
{"Sequence Input": "ATGACAAA", "Obs Value": "0.0479 % of ANNNNAAN 8-mers"}
{"Sequence Input": "AAATGAAG", "Obs Value": "0.2 % of ANNNNAAN 8-mers"}
{"Sequence Input": "ACGGGAAA", "Obs Value": "0.0586 % of ANNNNAAN 8-mers"}
{"Sequence Input": "ATTCAAAA", "Obs Value": "0.278 % of ANNNNAAN 8-mers"}
{"Sequence Input": "ATGGTAAT", "Obs Value": "0.219 % of ANNNNAAN 8-mers"}
{"Sequence Input": "ATTCCAAT", "Obs Value": "0.0751 % of ANNNNAAN 8-mers"}
{"Sequence Input": "ACCAAAAT", "Obs Value": "0.0537 % of ANNNNAAN 8-mers"}
{"Sequence Input": "AGCATAAT", "Obs Value": "0.106 % of ANNNNAAN 8-mers"}
{"Sequence Input": "ATTTTAAC", "Obs Value": "0.0652 % of ANNNNAAN 8-mers"}
{"Sequence Input": "AAGGGAAC", "Obs Value": "0.0305 % of ANNNNAAN 8-mers"}
{"Sequence Input": "AAGCAAAT", "Obs Value": "0.826 % of ANNNNAAN 8-mers"}
{"Sequence Input": "AGCTAAAC", "Obs Value": "0.0256 % of ANNNNAAN 8-mers"}
